Listed here: compounds with reported IC50 for Acetylcholinesterase (Electrophorus electricus).
Quantity: IC50

>  <Compound>
CC1c2ccccc2CCN1CCCCOc1ccc(-c2coc3cc(OCCCCN4CCc5ccccc5C4C)cc(O)c3c2=O)cc1 (centres undefined)

>  <Tgt>
Acetylcholinesterase (Electrophorus electricus)
Sequence (O42275 whole entry): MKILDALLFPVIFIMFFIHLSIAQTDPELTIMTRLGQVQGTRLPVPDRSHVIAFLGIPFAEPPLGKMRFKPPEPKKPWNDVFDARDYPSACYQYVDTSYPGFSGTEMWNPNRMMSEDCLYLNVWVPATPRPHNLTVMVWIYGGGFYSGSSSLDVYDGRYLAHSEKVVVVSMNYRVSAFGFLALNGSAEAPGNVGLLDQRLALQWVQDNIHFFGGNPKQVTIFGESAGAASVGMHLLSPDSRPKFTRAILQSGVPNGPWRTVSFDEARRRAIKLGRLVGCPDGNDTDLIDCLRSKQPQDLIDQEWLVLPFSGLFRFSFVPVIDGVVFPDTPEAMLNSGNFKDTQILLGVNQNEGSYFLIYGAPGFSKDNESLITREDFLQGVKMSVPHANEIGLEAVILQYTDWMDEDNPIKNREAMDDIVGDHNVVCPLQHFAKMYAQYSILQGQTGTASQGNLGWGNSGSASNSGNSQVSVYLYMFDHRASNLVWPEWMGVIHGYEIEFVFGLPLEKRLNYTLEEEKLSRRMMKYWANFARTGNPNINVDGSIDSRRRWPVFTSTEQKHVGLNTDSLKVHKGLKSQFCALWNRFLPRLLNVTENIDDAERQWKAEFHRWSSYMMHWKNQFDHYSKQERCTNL

>  <Result>
1.8 µM

$$$$
>  <Compound>
O=c1c(-c2ccc(OCCCCN3CCCCC3)cc2)coc2cc(OCCCCN3CCCCC3)cc(O)c12

>  <Tgt>
Acetylcholinesterase (Electrophorus electricus)

>  <Result>
0.52 µM

$$$$
>  <Compound>
O=C(/C=C/c1ccc(OCCCCN2CCC(Cc3ccccc3)CC2)cc1)c1c(O)cc(OCCCCN2CCC(Cc3ccccc3)CC2)cc1O

>  <Tgt>
Acetylcholinesterase (Electrophorus electricus)

>  <Result>
16.3 µM

$$$$
>  <Compound>
O=c1c(-c2ccc(OCCCCN3CCc4ccccc4C3)cc2)coc2cc(OCCCCN3CCc4ccccc4C3)cc(O)c12

>  <Tgt>
Acetylcholinesterase (Electrophorus electricus)

>  <Result>
13.5 µM

$$$$

---

This listing pairs molecules with measured IC50.
- Tgt: Acetylcholinesterase (Homo sapiens, UniProt P22303)
- Sequence (P22303 whole entry): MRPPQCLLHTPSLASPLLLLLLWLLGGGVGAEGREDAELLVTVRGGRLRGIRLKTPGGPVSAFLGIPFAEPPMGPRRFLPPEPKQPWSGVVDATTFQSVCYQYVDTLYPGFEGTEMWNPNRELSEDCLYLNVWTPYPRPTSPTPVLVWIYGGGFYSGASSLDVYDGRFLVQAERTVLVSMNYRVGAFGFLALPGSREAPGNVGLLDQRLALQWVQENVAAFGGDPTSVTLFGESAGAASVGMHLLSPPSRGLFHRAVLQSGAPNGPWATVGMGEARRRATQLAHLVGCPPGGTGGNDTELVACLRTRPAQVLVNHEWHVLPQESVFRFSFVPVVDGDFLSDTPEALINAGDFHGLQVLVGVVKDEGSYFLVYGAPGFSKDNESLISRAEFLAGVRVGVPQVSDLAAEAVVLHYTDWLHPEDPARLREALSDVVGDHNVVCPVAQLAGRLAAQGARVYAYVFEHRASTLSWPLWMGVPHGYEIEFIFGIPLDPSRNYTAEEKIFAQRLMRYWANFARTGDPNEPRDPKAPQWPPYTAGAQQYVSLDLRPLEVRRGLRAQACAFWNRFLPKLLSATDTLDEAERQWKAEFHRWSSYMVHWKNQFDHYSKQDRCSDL
- Experiment description: Inhibition of AChE in human erythrocytes by Ellman's method

>  <Molecule>
CCN(CCCCOc1ccc(-c2coc3cc(OCCCCN(CC)Cc4ccccc4)cc(O)c3c2=O)cc1)Cc1ccccc1

>  <Tgt>
Acetylcholinesterase (Homo sapiens, UniProt P22303)

>  <IC50 / µM>
2.1

$$$$
>  <Molecule>
O=C(/C=C/c1ccc(OCCCCN2CCCC2)cc1)c1c(O)cc(OCCCCN2CCCC2)cc1O

>  <Tgt>
Acetylcholinesterase (Homo sapiens, UniProt P22303)

>  <IC50 / µM>
3.2

$$$$
>  <Molecule>
O=c1cc(-c2ccc(OCCCCN3CCN(Cc4ccccc4)CC3)cc2)oc2cc(OCCCCN3CCN(Cc4ccccc4)CC3)cc(O)c12

>  <Tgt>
Acetylcholinesterase (Homo sapiens, UniProt P22303)

>  <IC50 / µM>
1

$$$$
>  <Molecule>
O=C(/C=C/c1ccc(OCCCCN2CCC(Cc3ccccc3)CC2)cc1)c1c(O)cc(OCCCCN2CCC(Cc3ccccc3)CC2)cc1O

>  <Tgt>
Acetylcholinesterase (Homo sapiens, UniProt P22303)

>  <IC50 / µM>
11.9

$$$$
>  <Molecule>
CCN(CCCCOc1ccc(C2CC(=O)c3c(O)cc(OCCCCN(CC)Cc4ccccc4OC)cc3O2)cc1)Cc1ccccc1OC (stereo not drawn)

>  <Tgt>
Acetylcholinesterase (Homo sapiens, UniProt P22303)

>  <IC50 / µM>
4.3

$$$$
>  <Molecule>
O=c1c(-c2ccc(OCCCCN3CCC(Cc4ccccc4)CC3)cc2)coc2cc(OCCCCN3CCC(Cc4ccccc4)CC3)cc(O)c12

>  <Tgt>
Acetylcholinesterase (Homo sapiens, UniProt P22303)

>  <IC50 / µM>
7.3

$$$$
>  <Molecule>
O=C(/C=C/c1ccc(OCCCCN2CCCCC2)cc1)c1c(O)cc(OCCCCN2CCCCC2)cc1O

>  <Tgt>
Acetylcholinesterase (Homo sapiens, UniProt P22303)

>  <IC50 / µM>
5.1

$$$$
>  <Molecule>
O=c1c(-c2ccc(OCCCCN3CCc4ccccc4C3)cc2)coc2cc(OCCCCN3CCc4ccccc4C3)cc(O)c12

>  <Tgt>
Acetylcholinesterase (Homo sapiens, UniProt P22303)

>  <IC50 / µM>
8.1

$$$$
